Listing of entries alongside the reported pest or weed control at 200 ppm.
# Test system: Pyrenophora teres (Helminthosporium teres)
# PROTOCOL_TEXT: Pyrenophora teres (Helminthosporium teres) / barley / preventative (net blotch on barley)
# Assay type: in vivo
# EXPERIMENTAL_SETUP: barley plants cv. Regina, inoculated 2 days after application, vs untreated control, read-out: disease control

Request: Find the measured pest or weed control at 200 ppm: item COc1cccc(-c2nc(-c3ncc4ccccc4n3)ccc2C)c1 [3/84] , target or system Pyrenophora teres (Helminthosporium teres).
Response: ≥ 80%

Request: Find the measured pest or weed control at 200 ppm: item COc1ccc(-c2nc(-c3ncc4ccccc4n3)ccc2C)c(C)c1 [3/53] , target or system Pyrenophora teres (Helminthosporium teres).
Response: ≥ 80%

Request: Find the measured pest or weed control at 200 ppm: item Cc1ccc(-c2ncc3ccccc3n2)nc1-c1cc(F)cc(F)c1 [3/90] , target or system Pyrenophora teres (Helminthosporium teres).
Response: ≥ 80%

Request: Find the measured pest or weed control at 200 ppm: item COc1ccc(-c2nc(-c3ncc4ccccc4n3)ccc2C)cc1 [3/70] , target or system Pyrenophora teres (Helminthosporium teres).
Response: ≥ 80%

Request: Find the measured pest or weed control at 200 ppm: item COc1ccccc1Oc1cccc(-c2ncc3ccccc3n2)n1 [4/15] , target or system Pyrenophora teres (Helminthosporium teres).
Response: ≥ 80%

Request: Find the measured pest or weed control at 200 ppm: item Cc1ccc(-c2ncc3ccccc3n2)nc1-c1ccc(Cl)cc1 [3/74] , target or system Pyrenophora teres (Helminthosporium teres).
Response: ≥ 80%

Request: Find the measured pest or weed control at 200 ppm: item Clc1ccccc1Oc1cccc(-c2ncc3ccccc3n2)n1 [4/23] , target or system Pyrenophora teres (Helminthosporium teres).
Response: ≥ 80%

Request: Find the measured pest or weed control at 200 ppm: item Cc1ccccc1Cc1cccc(-c2ncc3ccccc3n2)n1 [6/19] , target or system Pyrenophora teres (Helminthosporium teres).
Response: ≥ 80%

Request: Find the measured pest or weed control at 200 ppm: item Cc1ccc(-c2ncc3ccccc3n2)nc1Sc1ccccc1Cl [9/7] , target or system Pyrenophora teres (Helminthosporium teres).
Response: ≥ 80%

Request: Find the measured pest or weed control at 200 ppm: item COc1cccc(Sc2cccc(-c3ncc4ccccc4n3)n2)c1 [9/2] , target or system Pyrenophora teres (Helminthosporium teres).
Response: ≥ 80%

---

# System: Pyrenophora teres (Helminthosporium teres)
# PROTOCOL_TEXT: Pyrenophora teres (Helminthosporium teres) / barley / preventative (net blotch on barley)
# Type: in vivo
# EXPERIMENTAL_SETUP: barley plants cv. Regina, inoculated 2 days after application, vs untreated control, read-out: disease control
Listing of entries alongside the reported pest or weed control at 200 ppm.

1. Cc1ccc(-c2ncc3ccccc3n2)nc1-c1ccc(F)cc1F    ≥ 80%
2. Cc1ccc(-c2ncc3ccccc3n2)nc1-c1cc(Cl)cc(Cl)c1    ≥ 80%

Request: Tell me the measured pest or weed control at 200 ppm of Fc1ccc(Sc2cccc(-c3ncc4ccccc4n3)n2)cc1 , please.
Response: ≥ 80%

Values compiled from patent US20120129875A1.
